Test system: Rattus norvegicus
method-notes: Biodistribution in spleen of immature female rat after 5 hour administration of 3 micro Ci (111 kBq) in the absence of 60 microg estradiol
Assay type: ADME, organism-based
assay-context: in vivo
assay-metric: ID/g

Before answering, review these 2 worked examples.
- C[C@@H]1Cc2c(ccc(O)c2F)[C@H]2CC[C@@]3(C)[C@@H](CC[C@@]3(O)/C=C/I)[C@H]12: 0.8%
- CO[C@H]1C[C@@]2(C)[C@@H](CC[C@@]2(O)/C=C/I)[C@@H]2CCc3cc(O)c(F)cc3[C@H]21: 0.82%

Turning now to a further record.
Q: Lab request: please report ID/g under test system Rattus norvegicus for `C[C@@H]1Cc2cc(O)c(F)cc2[C@H]2CC[C@@]3(C)[C@@H](CC[C@@]3(O)/C=C\I)[C@H]12`
A: 0.51%

* * *

Tested on: Rattus norvegicus
method-notes: Biodistribution in uterus / blood of immature female rat after 1 hr administration of 3 micro Ci (111 kBq) in the absence of 60 microg estradiol
Format: ADME, organism-based
assay-context: in vivo
assay-metric: uterus-to-blood ratio of %ID/g (%)
All answers are understood in %, so give the number only.

- C[C@]12CC[C@@H]3c4ccc(O)c(F)c4CC[C@H]3[C@@H]1CC[C@@]2(O)/C=C/I: 5.42
- C[C@]12CC[C@@H]3c4ccc(O)c(F)c4CC[C@H]3[C@@H]1CC[C@@]2(O)/C=C\I: 15.19

Q: Endpoint output: uterus-to-blood ratio of %ID/g of `C[C@@H]1Cc2cc(O)c(F)cc2[C@H]2CC[C@@]3(C)[C@@H](CC[C@@]3(O)/C=C/I)[C@H]12` . Value?
A: 4.49

Q: Endpoint output: uterus-to-blood ratio of %ID/g of `CO[C@H]1C[C@@]2(C)[C@@H](CC[C@@]2(O)/C=C/I)[C@@H]2CCc3cc(O)c(F)cc3[C@H]21` . Value?
A: 9.82

Q: Endpoint output: uterus-to-blood ratio of %ID/g of `C[C@]12CC[C@@H]3c4cc(F)c(O)cc4CC[C@H]3[C@@H]1CC[C@@]2(O)/C=C\I` . Value?
A: 7.34

Q: Endpoint output: uterus-to-blood ratio of %ID/g of `CO[C@H]1C[C@@]2(C)[C@@H](CC[C@@]2(O)/C=C\I)[C@@H]2CCc3c(ccc(O)c3F)[C@H]21` . Value?
A: 10.55

Q: Endpoint output: uterus-to-blood ratio of %ID/g of `C[C@]12CC[C@@H]3c4cc(F)c(O)cc4CC[C@H]3[C@@H]1CC[C@@]2(O)/C=C/I` . Value?
A: 2.21

* * *

Tested on: Rattus norvegicus
method-notes: Biodistribution in spleen of immature female rat after 5 hour administration of 3 micro Ci (111 kBq) in the absence of 60 microg estradiol
Type: ADME, organism-based
assay-context: in vivo
ID/g vs 0.2%: less than gives rule met; not less than gives rule not met.

Worked cases, answers included:
- C[C@@H]1Cc2cc(O)c(F)cc2[C@H]2CC[C@@]3(C)[C@@H](CC[C@@]3(O)/C=C/I)[C@H]12: rule met
- C[C@]12CC[C@@H]3c4cc(F)c(O)cc4CC[C@H]3[C@@H]1CC[C@@]2(O)/C=C/I: rule not met
- CO[C@H]1C[C@@]2(C)[C@@H](CC[C@@]2(O)/C=C\I)[C@@H]2CCc3c(ccc(O)c3F)[C@H]21: rule not met
- C[C@]12CC[C@@H]3c4ccc(O)c(F)c4CC[C@H]3[C@@H]1CC[C@@]2(O)/C=C\I: rule not met
- C[C@@H]1Cc2c(ccc(O)c2F)[C@H]2CC[C@@]3(C)[C@@H](CC[C@@]3(O)/C=C\I)[C@H]12: rule not met

Q: Hi there! Is ID/g for `C[C@]12CC[C@@H]3c4ccc(O)c(F)c4CC[C@H]3[C@@H]1CC[C@@]2(O)/C=C/I` below 0.2%, do you know?
A: rule met

* * *

Tested on: Rattus norvegicus
method-notes: Biodistribution in blood of immature female rat after 3 hour administration of 3 micro Ci (111 kBq) in the absence of 60 microg estradiol
Type: ADME, organism-based
assay-context: in vivo
assay-metric: ID/g (%)
All answers are understood in %, so give the number only.

Before answering, review these 5 worked examples.
- C[C@]12CC[C@@H]3c4ccc(O)c(F)c4CC[C@H]3[C@@H]1CC[C@@]2(O)/C=C\I: 0.48
- C[C@]12CC[C@@H]3c4cc(F)c(O)cc4CC[C@H]3[C@@H]1CC[C@@]2(O)/C=C\I: 0.42
- C[C@@H]1Cc2c(ccc(O)c2F)[C@H]2CC[C@@]3(C)[C@@H](CC[C@@]3(O)/C=C\I)[C@H]12: 0.39
- CO[C@H]1C[C@@]2(C)[C@@H](CC[C@@]2(O)/C=C\I)[C@@H]2CCc3c(ccc(O)c3F)[C@H]21: 0.56
- CO[C@H]1C[C@@]2(C)[C@@H](CC[C@@]2(O)/C=C/I)[C@@H]2CCc3cc(O)c(F)cc3[C@H]21: 0.38

Q: Endpoint output: ID/g of `C[C@@H]1Cc2c(ccc(O)c2F)[C@H]2CC[C@@]3(C)[C@@H](CC[C@@]3(O)/C=C/I)[C@H]12` . Value?
A: 0.32

Q: Endpoint output: ID/g of `C[C@]12CC[C@@H]3c4cc(F)c(O)cc4CC[C@H]3[C@@H]1CC[C@@]2(O)/C=C/I` . Value?
A: 0.42

* * *

System: Rattus norvegicus
method-notes: Biodistribution in spleen of immature female rat after 3 hour administration of 3 micro Ci (111 kBq) in the absence of 60 microg estradiol
Format: ADME, organism-based
assay-context: in vivo
Item-by-item account of ID/g
All answers are understood in %, so give the number only.

Before answering, review these 3 worked examples.
• CO[C@H]1C[C@@]2(C)[C@@H](CC[C@@]2(O)/C=C/I)[C@@H]2CCc3cc(O)c(F)cc3[C@H]21 = 0.8
• C[C@@H]1Cc2c(ccc(O)c2F)[C@H]2CC[C@@]3(C)[C@@H](CC[C@@]3(O)/C=C\I)[C@H]12 = 0.72
• C[C@]12CC[C@@H]3c4ccc(O)c(F)c4CC[C@H]3[C@@H]1CC[C@@]2(O)/C=C\I = 0.48

Q: Endpoint output: ID/g of `C[C@@H]1Cc2cc(O)c(F)cc2[C@H]2CC[C@@]3(C)[C@@H](CC[C@@]3(O)/C=C/I)[C@H]12` . Value?
A: 0.43

Q: Endpoint output: ID/g of `CO[C@H]1C[C@@]2(C)[C@@H](CC[C@@]2(O)/C=C\I)[C@@H]2CCc3c(ccc(O)c3F)[C@H]21` . Value?
A: 0.72

Q: Endpoint output: ID/g of `C[C@@H]1Cc2cc(O)c(F)cc2[C@H]2CC[C@@]3(C)[C@@H](CC[C@@]3(O)/C=C\I)[C@H]12` . Value?
A: 0.74

* * *

Item-by-item account of ID/g
Test system: Rattus norvegicus
method-notes: Biodistribution in fat of immature female rat after 12 hour administration of 3 micro Ci (111 kBq) in the absence of 60 microg estradiol
Type: ADME, organism-based, Adipose tissue
assay-context: in vivo
Please state the number and follow it with the unit.

* CO[C@H]1C[C@@]2(C)[C@@H](CC[C@@]2(O)/C=C/I)[C@@H]2CCc3cc(O)c(F)cc3[C@H]21 | 0.45%
* C[C@]12CC[C@@H]3c4ccc(O)c(F)c4CC[C@H]3[C@@H]1CC[C@@]2(O)/C=C/I | 0.3%
* C[C@@H]1Cc2c(ccc(O)c2F)[C@H]2CC[C@@]3(C)[C@@H](CC[C@@]3(O)/C=C/I)[C@H]12 | 1.67%
* C[C@@H]1Cc2cc(O)c(F)cc2[C@H]2CC[C@@]3(C)[C@@H](CC[C@@]3(O)/C=C/I)[C@H]12 | 0.92%
* CO[C@H]1C[C@@]2(C)[C@@H](CC[C@@]2(O)/C=C\I)[C@@H]2CCc3c(ccc(O)c3F)[C@H]21 | 0.47%

Q: Endpoint output: ID/g of `C[C@]12CC[C@@H]3c4cc(F)c(O)cc4CC[C@H]3[C@@H]1CC[C@@]2(O)/C=C\I` . Value?
A: 0.19%

Q: Endpoint output: ID/g of `C[C@@H]1Cc2cc(O)c(F)cc2[C@H]2CC[C@@]3(C)[C@@H](CC[C@@]3(O)/C=C\I)[C@H]12` . Value?
A: 0.84%

Q: Endpoint output: ID/g of `C[C@@H]1Cc2c(ccc(O)c2F)[C@H]2CC[C@@]3(C)[C@@H](CC[C@@]3(O)/C=C\I)[C@H]12` . Value?
A: 0.89%

Q: Endpoint output: ID/g of `C[C@]12CC[C@@H]3c4cc(F)c(O)cc4CC[C@H]3[C@@H]1CC[C@@]2(O)/C=C/I` . Value?
A: 0.41%

Q: Endpoint output: ID/g of `C[C@]12CC[C@@H]3c4ccc(O)c(F)c4CC[C@H]3[C@@H]1CC[C@@]2(O)/C=C\I` . Value?
A: 0.75%

These data points were gathered from ChEMBL document CHEMBL1126849.
